// provenance: PubChem BioAssay (NCI)

# maps each entry to its growth
Test system: EKVX NSCLC
Experiment: NCI-60 one-dose screen, 48 h (100 = growth as untreated, 0 = no growth, -100 = all killed)
Settings: 10 µM unless noted
The panel holds about 83,000 compounds, 20% with a hit somewhere; the sample as a whole holds those more often.
Hi! Could you send only the number? It should be in %, unit omitted.

                               molecule  test_result
0  Cc1ccccc1Nc1nnc(-c2c[nH]c3ccccc23)o1         20.1

Now for another entry.
Log: EKVX NSCLC, molecule O=C(Nc1nc2ccc([N+](=O)[O-])cc2s1)Nc1ccc(Cl)cc1Cl , growth = 40.7

----------
Test system: CCRF-CEM leukemia
Test: NCI-60 one-dose screen, 48 h (100 = growth as untreated, 0 = no growth, -100 = all killed)
Settings: 10 µM unless noted
The panel holds about 83,000 compounds, 20% with a hit somewhere; the sample as a whole holds those more often.
observation.type: growth (%)
Quick note: give the figure in %, leave out the unit.

In [3]: df
Out[3]:
                                   compound  system_under_test  test_result
0  COc1ccc(/C=C/C(=O)c2ccc(S(=O)(=O)NCCNc3nc(N(C)C)nc(N4CCOCC4)n3)cc2)cc1  CCRF-CEM leukemia           80
1  O=C(CSc1nc2sc3c(c2c(=O)n1-c1ccc(Cl)cc1)CCCC3)NNC(=O)c1ccc(F)cc1  CCRF-CEM leukemia         73.6
2  O=C(Nc1ccc(-c2ccc3c(c2)NC(=O)/C3=C\c2ccc[nH]2)cc1)Nc1ccc(Cl)c(C(F)(F)F)c1  CCRF-CEM leukemia         27.4

Response field growth (CCRF-CEM leukemia) for item CC(=O)c1ccc2c(N)c(C(=O)Nc3ccc(C(F)(F)F)cc3)sc2n1 : 60.9

The reported CCRF-CEM leukemia growth of COc1cc(NC(=O)C(C)C)ccc1C(=O)NC(=S)Nc1ccc(S(N)(=O)=O)cc1 is 97.5

Case CCOC(=O)/C(F)=C/C1CC1C(c1ccccc1)c1ccccc1 (centres undefined) , CCRF-CEM leukemia, growth recorded as 85.4

----------
Test system: MALME-3M melanoma
Test: NCI-60 one-dose screen, 48 h
Settings: 10 µM unless noted
Compounds without any hit were thinned out: in the full panel of roughly 83,000, 20% have a hit. Calls of active or inactive are those of the source. Rule for the calls: active = growth percent below 10; inactive = the rest.
// one of y = active, n = inactive, no free text

Example cases with answers are listed next.
>>> print(df.to_string())
                                   molecule  system_under_test  assigned_class
0  Cc1ccc(C(=O)Nc2cccc(C(=O)NC(=S)Nc3ccc(S(N)(=O)=O)cc3)c2)cc1  MALME-3M melanoma               n
1  COc1cccc2nc(Nc3cccc(NC(=O)c4ccc(CN5CCN(C)CC5)c(C(F)(F)F)c4)c3)ccc12  MALME-3M melanoma               y
2         CCCSc1nnc(-c2sc3nc4ccccc4n3c2C)o1  MALME-3M melanoma               n
3  O=C1/C(=C/c2cnc(-c3ccccc3)s2)SC(=S)N1Cc1ccc2c(c1)OCO2  MALME-3M melanoma               n
4  Cc1nc(Nc2ccccn2)sc1C1=NNC(c2ccccc2F)C1 (stereo not drawn)  MALME-3M melanoma               n

stdin: Please indicate how the test categorized COc1ccc2c(c1)C(Sc1ccc(F)cc1)c1c(nc(N)c(C#N)c1N)O2 (stereo not drawn) .
stdout: n

stdin: Outcome? N#Cc1cc(-c2ccnc(Nc3ccc(N4CCN(C5COC5)CC4)cc3)n2)ccc1N1CCCC1
stdout: n

stdin: What was the test verdict on O=C(CSc1nc2c(c(=O)[nH]1)CCCC2)Nc1ccccc1C(=O)O ?
stdout: n
